Values were extracted from the supplement of paper PMC9233669.

Listing of recorded self-aminoacylation by entry.
Test system: biotinyl-Trp-oxazolone
Assay: self-aminoacylation, catalytic enhancement (BWO) (fold over background); higher = more active; k-Seq, kA / k0A0; sequences stand for … in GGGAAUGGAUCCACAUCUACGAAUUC…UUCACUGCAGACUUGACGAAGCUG
This sample holds only a part of the variants without activity.
Write the number on its own, no unit after it.

>>> value_observed("AUUACCAUGGUCAUCGAGAGA [Fam2.1 aminoacylation ribozyme variant]")
1.38
>>> value_observed("AUUCACCUCGGUCAUCGGCUG [Fam2.2 aminoacylation ribozyme variant]")
2.02
>>> value_observed("CCACAUUUCAAGCACUCGGUC [Fam1B.1 aminoacylation ribozyme variant]")
0.97
>>> value_observed("CGACUUCAAAUAAUCGGUCUG [Fam1A.1 aminoacylation ribozyme variant]")
14.6
>>> value_observed("CCACACUUCAAGCCAUAGGUC [Fam1B.1 aminoacylation ribozyme variant]")
0.633

Query :: Could you please provide reported self-aminoacylation for AUUCACCUAGGUGAUCGGGUU [Fam2.2 aminoacylation ribozyme variant] ? Thanks!
Result :: 1.06

Query :: Could you please provide reported self-aminoacylation for AAGUGUGCUGAUAGUCGCAAG [Fam3.1 aminoacylation ribozyme variant] ? Thanks!
Result :: 1.38

Query :: Could you please provide reported self-aminoacylation for AAGUAUGCUAAUAGUCGUAAG [Fam3.1 aminoacylation ribozyme variant] ? Thanks!
Result :: 8.96

Query :: Could you please provide reported self-aminoacylation for AUUUCCCUGGUCACCGAGUGA [Fam2.1 aminoacylation ribozyme variant] ? Thanks!
Result :: 9.27

----------
Listing of recorded self-aminoacylation by entry.
System: biotinyl-Leu-oxazolone
Experiment: self-aminoacylation, catalytic enhancement (BLO) (fold over background); higher = more active; k-Seq, kA / k0A0; sequences stand for … in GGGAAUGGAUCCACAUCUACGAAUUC…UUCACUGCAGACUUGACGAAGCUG
Fewer inactive variants are shown than the library holds.
Write the number on its own, no unit after it.

>>> value_observed("AUUACCCUGGUCAUCGAGGGC [Fam2.1 aminoacylation ribozyme variant]")
1.56

Query :: Jot down self-aminoacylation (biotinyl-Leu-oxazolone) of GUAAUUCAAACAAUCGGUCUG [Fam1A.1 aminoacylation ribozyme variant] .
Result :: 0.967

Query :: Jot down self-aminoacylation (biotinyl-Leu-oxazolone) of CCACACUUCAACCAAUCGGUC [Fam1B.1 aminoacylation ribozyme variant] .
Result :: 2.17

Query :: Jot down self-aminoacylation (biotinyl-Leu-oxazolone) of AAGUUUGCUAAUAGUAGCAAC [Fam3.1 aminoacylation ribozyme variant] .
Result :: 0.631

----------
Test system: biotinyl-Trp-oxazolone
Assay: self-aminoacylation, catalytic enhancement (BWO) (fold over background); higher = more active; k-Seq, kA / k0A0; sequences stand for … in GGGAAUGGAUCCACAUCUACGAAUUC…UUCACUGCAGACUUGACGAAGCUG
Fewer inactive variants are shown than the library holds.
Categorized via self-aminoacylation: low = under 0.7, middle = from 0.7 up to 2, high = 2 and over

>>> classification("AUUCACAUAGGUCAUCGGCUG [Fam2.2 aminoacylation ribozyme variant]")
"middle"
>>> classification("AUUACGCUUGUCAUCGAGUGA [Fam2.1 aminoacylation ribozyme variant]")
"high"
>>> classification("AAGUUUGAUAAUAGACGCAAG [Fam3.1 aminoacylation ribozyme variant]")
"low"
>>> classification("AUUUCCCGGGUCAUCGAGUGA [Fam2.1 aminoacylation ribozyme variant]")
"high"
>>> classification("AUUAACCUGGUCAUCGAAUGA [Fam2.1 aminoacylation ribozyme variant]")
"middle"
>>> classification("AUUACCGUGGUCAUCGACUGA [Fam2.1 aminoacylation ribozyme variant]")
"low"

Query :: Sort into band: AUUACCCUGGUCAUCGAAUGC [Fam2.1 aminoacylation ribozyme variant]
Result :: middle

Query :: Sort into band: AUUCACCUAGGUCAUUGGGAG [Fam2.2 aminoacylation ribozyme variant]
Result :: middle

Query :: Sort into band: CUACUCCAGACAAUCGGUCUG [Fam1A.1 aminoacylation ribozyme variant]
Result :: middle
